The sequences listed here are annotated with their % inhibition of 2C11 binding to FVIII.
# Test system: 2C11 antibody (binding to factor VIII)
# ASSAY_REMARKS: ELISA: inhibition of binding of 2C11 antibody to immobilized FVIII by soluble peptides
# Set-up: species or system human
# RUN_PARAMETERS: peptide concentration 20 (range: 20 μM)
Where no end group is shown, it is not given here.
ENDPOINT_LABEL: % inhibition of 2C11 binding to FVIII (%)

INSERT INTO results (sequence_data, readout_value) VALUES
  ('ECGSHAWGRRCK (chain 1 Ac-ECGSHAWGRRCK; chain 2 Ac-ECGSHAWGRRCK; cysteine pairing not given here) [compound 104]', 30.68),
  ('RCHAWSNRKSCV (Ac-RCHAWSNRKSCV; cysteine pairing not given here) [compound 109]', 37.48),
  ('CMKWSNRSSRWC (Ac-CMKWSNRSSRWC; cysteine pairing not given here) [compound 106]', 21.99),
  ('SCHAWSNRRTCR [peptide 107]', 80.04),
  ('QCHTWSNRRSCL (Ac-QCHTWSNRRSCL; cysteine pairing not given here) [compound 108]', 25.99),
  ('KCGRWSNRSSCT (Ac-KCGRWSNRSSCT; cysteine pairing not given here) [compound 103]', 28.26),
  ('CSKWHNRSKRHC (Ac-CSKWHNRSKRHC; cysteine pairing not given here) [compound 105]', 45.04);

---

# Test system: 2C11 antibody (binding to factor VIII)
# ASSAY_REMARKS: ELISA: inhibition of binding of 2C11 antibody to immobilized FVIII by soluble peptides
# Set-up: species or system human
# RUN_PARAMETERS: peptide concentration 2 (2 μM)
# Description: The FVIII is immobilized on the ON plate at 4° C. In parallel, the inhibitor antibody is preincubated with its epitope peptide(s) in the ON range at 4° C. in 0.1% PBS-T-2% milk. After saturation for 1 hour with 0.1% PBS-T-2% milk, the Ab-peptide mixtures are incubated with the immobilized FVIII for 2 hours at 37° C. […] The reaction takes place for 30 minutes in the dark then measurement of the absorbance is carried out at 450 nm. […]
Where no end group is shown, it is not given here.
ENDPOINT_LABEL: % inhibition of 2C11 binding to FVIII (%)

INSERT INTO measurements (sequence_data, readout_value) VALUES
  ('KCGRWSNRSSCT (Ac-KCGRWSNRSSCT; cysteine pairing not given here) [compound 103]', 3.47),
  ('ECGSHAWGRRCK (chain 1 Ac-ECGSHAWGRRCK; chain 2 Ac-ECGSHAWGRRCK; cysteine pairing not given here) [compound 104]', 13.44),
  ('CSKWHNRSKRHC (Ac-CSKWHNRSKRHC; cysteine pairing not given here) [compound 105]', 10.27),
  ('QCHTWSNRRSCL (Ac-QCHTWSNRRSCL; cysteine pairing not given here) [compound 108]', 15.79);

---

# Test system: 2C11 antibody (binding to factor VIII)
# ASSAY_REMARKS: ELISA: inhibition of binding of 2C11 antibody to immobilized FVIII by soluble peptides
# Set-up: species or system human
# RUN_PARAMETERS: peptide concentration 200 (range: 200 μM), pre-incubation overnight at 4° C.
Where no end group is shown, it is not given here.
ENDPOINT_LABEL: % inhibition of 2C11 binding to FVIII (%)

INSERT INTO measurements (sequence_data, readout_value) VALUES
  ('ECGSHAWGRRCK (chain 1 Ac-ECGSHAWGRRCK; chain 2 Ac-ECGSHAWGRRCK; cysteine pairing not given here) [compound 104]', 63.71),
  ('CMKWSNRSSRWC (Ac-CMKWSNRSSRWC; cysteine pairing not given here) [compound 106]', 36.56),
  ('RCHAWSNRKSCV (Ac-RCHAWSNRKSCV; cysteine pairing not given here) [compound 109]', 75.05);

---

# System: 2C11 antibody (binding to factor VIII)
# ASSAY_REMARKS: ELISA: inhibition of binding of 2C11 antibody to immobilized FVIII by soluble peptides
# Set-up: species or system human
# RUN_PARAMETERS: peptide concentration 2 (2 μM)
Where no end group is shown, it is not given here.
Collected % inhibition of 2C11 binding to FVIII values appear next to each entry.
ENDPOINT_LABEL: % inhibition of 2C11 binding to FVIII (%)

INSERT INTO measurements (sequence_data, endpoint_label, readout_value) VALUES
  ('RCHAWSNRKSCV (Ac-RCHAWSNRKSCV; cysteine pairing not given here) [compound 109]', '% inhibition of 2C11 binding to FVIII', 12.46),
  ('CMKWSNRSSRWC (Ac-CMKWSNRSSRWC; cysteine pairing not given here) [compound 106]', '% inhibition of 2C11 binding to FVIII', 0.00),
  ('SCHAWSNRRTCR [peptide 107]', '% inhibition of 2C11 binding to FVIII', 37.33);

---

# Test system: 2C11 antibody (binding to factor VIII)
# ASSAY_REMARKS: ELISA: inhibition of binding of 2C11 antibody to immobilized FVIII by soluble peptides
# Design: species or system human
# RUN_PARAMETERS: peptide concentration 200 (range: 200 μM), pre-incubation overnight at 4° C.
Where no end group is shown, it is not given here.
ENDPOINT_LABEL: % inhibition of 2C11 binding to FVIII (%)

INSERT INTO results (sequence_data, readout_value) VALUES
  ('QCHTWSNRRSCL (Ac-QCHTWSNRRSCL; cysteine pairing not given here) [compound 108]', 60.69),
  ('KCGRWSNRSSCT (Ac-KCGRWSNRSSCT; cysteine pairing not given here) [compound 103]', 62.73),
  ('CSKWHNRSKRHC (Ac-CSKWHNRSKRHC; cysteine pairing not given here) [compound 105]', 75.58),
  ('SCHAWSNRRTCR [peptide 107]', 90.48);
